target: human glucagon receptor (human) (UniProt P47871); experiment: cell-based or functional assay
Sequence (P47871 26-477): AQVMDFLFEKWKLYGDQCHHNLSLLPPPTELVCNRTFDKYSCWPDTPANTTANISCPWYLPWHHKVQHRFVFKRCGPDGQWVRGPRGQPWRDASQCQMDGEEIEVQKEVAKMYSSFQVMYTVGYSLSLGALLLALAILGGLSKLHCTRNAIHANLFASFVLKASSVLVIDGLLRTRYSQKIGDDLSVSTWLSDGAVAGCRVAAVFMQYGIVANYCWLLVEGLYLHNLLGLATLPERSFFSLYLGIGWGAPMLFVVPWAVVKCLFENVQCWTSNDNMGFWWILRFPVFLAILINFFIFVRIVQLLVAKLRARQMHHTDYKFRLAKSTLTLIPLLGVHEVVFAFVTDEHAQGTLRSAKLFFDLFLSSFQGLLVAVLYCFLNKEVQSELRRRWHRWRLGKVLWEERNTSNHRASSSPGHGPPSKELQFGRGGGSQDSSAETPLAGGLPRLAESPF
Non-standard residues stand in square brackets, D forms with d. No end group written: not given here. αMePhe(2-F) = C[C@](N)(Cc1ccccc1F)C(=O)O; Aib = CC(C)(N)C(=O)O
What Relative cAMP EC50 was measured for each of the following?
I'd appreciate it if you wrote the number followed by its unit.

Record excerpt, results attached:
Binder	Relative cAMP EC50
YXQGTFTSDFSKXLDKKAQXAFIEYLLAGGPSSGEPPPSEGX (Aib, αMeL, acylated K, C-terminal AEEA amide; synthetic construct; SITE 2: note = 2-Aminoisobutyric Acid; SITE 13: note = alpha-methyl-leucine; SITE 17: note = Lysine is chemically modified through conjugation of the epsilon-amino group of the Lysine side chain with (2-[2-(2-Amino-ethoxy)-ethoxy]-acetyl)-(gamma-Glu)-CO-(CH2) 18-CO2H; SITE 20: n) [Example 32]	11.6 nM
YXQGTFTSDXSQXLDXKAQXQFIEXLIEXGPSSGEPPPSGSEE (not fully specified; non-natural residues; Lys acylated C18 diacid via γGlu; C-term amide; synthetic construct; SITE 2: note = 2-Aminoisobutyric Acid; SITE 10: note = 3-(4-Pyridyl)-L-alanine; SITE 13: note = alpha-methyl-leucine; SITE 16: note = L-ornithine; SITE 17: note = Lysine is chemically modified through conjugation of the epsilon-amino group of the Lysine side chain with D-Glutami) [Example 1104]	11.1 nM
YXQGTXTSDXSILLDKKAQXAFIEXLEEGGPSSGAPPPSGGGE (synthetic construct; SITE 2: note = 2-Aminoisobutyric Acid; SITE 6: note = alpha-methyl-2-fluoro-L-phenylalanine; SITE 10: note = 3-(4-Pyridyl)-L-alanine; SITE 17: note = Lysine is chemically modified through conjugation of the epsilon-amino group of the Lysine side chain with (gamma-Glu)2-CO-(CH2)1) [Example 668 (SEQ ID NO: 674)]	2.03 nM
YXQGTXTSDXSIXLDKKAQXAFIEYLEEGGPSSGEPPPSGEGE (non-natural residues; lipidated Lys; C-terminal amide; synthetic construct; SITE 2: note = 2-Aminoisobutyric Acid; SITE 6: note = alpha-methyl-2-fluoro-L-phenylalanine; SITE 10: note = 3-(4-Pyridyl)-L-alanine; SITE 13: note = alpha-methyl-leucine; SITE 17: note = Lysine is chemically modified through conjugation of the epsilon-amino group of the Lysine) [Example 625]	8.53 nM
YXQGTFTSDFSXXLDKKAQXAFIEYLLAGGPSSGAPPPEGS (synthetic construct; SITE 2: note = 2-Aminoisobutyric Acid; SITE 12: note = L-ornithine; SITE 13: note = alpha-methyl-leucine; SITE 17: note = Lysine is chemically modified through conjugation of the epsilon-amino group of the Lysine side chain with (2-[2-(2-Amino-ethoxy)-ethoxy]-acetyl)-(gamma-Glu)) [Example 93]	7.16 nM
YXQGTXTSDXSIXLDKKAQXAFIEYLQEGGPSSGEPPPSGSEE ((γGlu)2-C18 diacid on Lys; non-natural residues; amide; synthetic construct; SITE 2: note = 2-Aminoisobutyric Acid; SITE 6: note = alpha-methyl-2-fluoro-L-phenylalanine; SITE 10: note = 3-(4-Pyridyl)-L-alanine; SITE 13: note = alpha-methyl-leucine; SITE 17: note = Lysine is chemically modified through conjugation of the epsilon-amino group of the Lysine) [Example 634]	6.49 nM

Can you give me Relative cAMP EC50 for all of these, one by one?
1. Y[Aib]QGT[αMePhe(2-F)]TSDYSKLLDKIAQKAFIEYLIEGGPSSGEPPPSEG-NH2 (not fully specified (residue 20)) [Example 304]
2. YXQGTFTSDFSRXLDKKAQXAFIEYLLEGGPSSGAPPPSGS (synthetic construct; SITE 2: note = 2-Aminoisobutyric Acid; SITE 13: note = alpha-methyl-leucine; SITE 17: note = Lysine is chemically modified through conjugation of the epsilon-amino group of the Lysine side chain with (2-[2-(2-Amino-ethoxy)-ethoxy]-acetyl)-(gamma-Glu)-CO-(CH2) 16-CO2H; SITE 20: n) [Example 143]
3. YXQGTXTSDXSIXLDKKAQXAFIEYLEEGGPSSGEPPPSGSEE (non-natural residues; lipidated Lys; C-terminal amide; synthetic construct; SITE 2: note = 2-Aminoisobutyric Acid; SITE 6: note = alpha-methyl-2-fluoro-L-phenylalanine; SITE 10: note = 3-(4-Pyridyl)-L-alanine; SITE 13: note = alpha-methyl-leucine; SITE 17: note = Lysine is chemically modified through conjugation of the epsilon-amino group of the Lysine) [Example 630]
4. YXQGTXTSDXXIXLDXKAQXEFIEXLIEGGPSSGEPPPSGE (not fully specified; non-natural residues; acylated Lys; C-terminal amide; synthetic construct; SITE 2: note = 2-Aminoisobutyric Acid; SITE 6: note = alpha-methyl-2-fluoro-L-phenylalanine; SITE 10: note = 3-(4-Pyridyl)-L-alanine; SITE 11: note = alpha-methyl-L-serine; SITE 13: note = alpha-methyl-leucine; SITE 16: note = L-ornithine; SITE 17: note = Lysine is chemically mo) [Example 1151]
5. YXQGTFTSDFSKXLDKKAQXAFIEYLLAGGPSSGEPPPSGG (Aib, αMeL; Lys acylated; C-terminal amide; synthetic construct; SITE 2: note = 2-Aminoisobutyric Acid; SITE 13: note = alpha-methyl-leucine; SITE 17: note = Lysine is chemically modified through conjugation of the epsilon-amino group of the Lysine side chain with (2-[2-(2-Amino-ethoxy)-ethoxy]-acetyl)-(gamma-Glu)-CO-(CH2) 18-CO2H; SITE 20: n) [Example 6]
6. YXQGTFTSDXSQXLDKKAQXAFIEXLIEXGPSSGAPPPSGTGE (non-natural residues; Lys acylated AEEA-γGlu-C18 diacid; C-terminal amide; synthetic construct; SITE 2: note = 2-Aminoisobutyric Acid; SITE 10: note = 3-(4-Pyridyl)-L-alanine; SITE 13: note = alpha-methyl-leucine; SITE 17: note = Lysine is chemically modified through conjugation of the epsilon-amino group of the Lysine side chain with (2-[2-(2-Amino-ethoxy)-ethoxy]-acetyl)) [Example 1117]

1: 2.31 nM; 2: 4.51 nM; 3: 8.07 nM; 4: 1.31 nM; 5: 6.89 nM; 6: 4.93 nM
